# Tested on: MS2 coat protein
# assayNotes: apparent KD of MS2 coat protein; designed switch direction (-1 OFF switch, 1 ON switch): -1; higher = weaker reporter binding
# conditionInfo: input ligand: FMN 200 uM
assayReadout: apparent KD of MS2 coat protein (nM)
Just the number in nM, nothing appended.

>  <residueCodes>
AAUAAUGAUAAGGAUAUCACUAGCUUCGGCUAGUGAGAAGGUAUCACAUGAGGAUCACCCAUGUGUUCCAAUAA [Ex6/6-A1] (Eterna round: R97, puzzle: Exclusion 6)

>  <assayReadout>
apparent KD of MS2 coat protein

>  <assayValue>
38.1

$$$$
>  <residueCodes>
CAAGAUUACUGAGGAUAUCCUAGUUUAUCUCAGGGAGAAGGCGGACUCAACAUGAGGAUCACCCAUGUAAGACGGGUACUAGAG [Ex NG1 #15] (Eterna round: R96, puzzle: Exclusion NG 1)

>  <assayReadout>
apparent KD of MS2 coat protein

>  <assayValue>
84.8

$$$$
>  <residueCodes>
AUAAUGUCAGGAUAUCAGUCGACUAGCGAUAGCUAGUCGACUGAGAAGGGACAUGAGGAUCACCCAUGUGUUUC [E4/14-A4] (Eterna round: R97, puzzle: Exclusion 4)

>  <assayReadout>
apparent KD of MS2 coat protein

>  <assayValue>
2.73

$$$$
>  <residueCodes>
GUUUCACAUGAGGAUCACCCAUGUGAGGAUAUGCAUUUGUUAACCGUAGUUAAUAGAUGCAGAAGGCGCGUGAU [JRxlusion 5 - Jieux - Exclusion 1] (Eterna round: R97, puzzle: Exclusion 1)

>  <assayReadout>
apparent KD of MS2 coat protein

>  <assayValue>
69.8

$$$$

Task: Reported apparent KD of MS2 coat protein for AGCUAUGCCGAGGAUAUCGGCUGGAUAAGACACUGAGAAGGCGGGACAUGAGGAUCACCCAUGUGAACCUAUAU [Eternabot (L1) Solution 30] (Eterna round: R97, puzzle: Exclusion 6) : what is it?
Result: 27.3

###

# Tested on: MS2 coat protein
# assayNotes: apparent KD of MS2 coat protein; designed switch direction (-1 OFF switch, 1 ON switch): -1; higher = weaker reporter binding
# conditionInfo: Eterna round: R95; input ligand: none
assayReadout: apparent KD of MS2 coat protein (nM)
Give the value, in units of nM, as a plain number.

// below: answered sequences
>  <residueCodes>
CGUAUCUUUCACGUGAGUAGUGGGUGCAACAGGUGGGUUACAUGAGGAUCACCCAUGUACUCACUUGCUCGUCUUAU [Grok-var2-06] (puzzle: Sensor v3, turn-off variant 2)

>  <assayedSystem>
MS2 coat protein

>  <assayReadout>
apparent KD of MS2 coat protein

>  <assayValue>
34.3

$$$$
>  <residueCodes>
UUUAAUUUUUUUUUUUUACAAGCUUUUUGCUCGUCUUAUACAUGAGGAUCACCCAUGUGAAUGGAAGAUAAAUUAUC [JMF 8] (puzzle: Sensor v3, turn-off variant 2)

>  <assayedSystem>
MS2 coat protein

>  <assayReadout>
apparent KD of MS2 coat protein

>  <assayValue>
18.6

$$$$

Task: Value lookup for apparent KD of MS2 coat protein; key = CAUGAUCUUCGGAUCAUGUACAUGAGGAUCACCCAUGUGACGAGUUGAUCCUCAUACAAGCUUUUUGCUCGUCUUAU [Sensor v3 - Turn-off variant 1 - 15] (puzzle: Sensor v3, turn-off variant 1)
Result: 24.4

Task: Record: UCGGUGUCAGGAUAUACAUGAGGAUCACCCAUGUAGAGAGAAGAUAGGGAAAGAGUAGGUAGAAGGGACGAGAG [JR_Exclu3_Sub045] (puzzle: Exclusion 3)
Result: 41.7

Task: Query GAUUAUGCGAGCUUUAGGGACAUGAGGAUCACCCAUGUUCGUCUUAUUGGUCUGAGUACACUAACAUACCUAAAUCU [JMF 15] (puzzle: Sensor v3, turn-off variant 1) next
Result: 20.3

Task: Also need AAAAAGGUAGGAUAUACGAAAAAAAAGGGUAGAAAAAAAACACAUGAGGAUCACCCAUGUAGAAGGACCAAAAG [salish99_ex2_r3_045] (puzzle: Exclusion 2) , thanks.
Result: 28.4

Task: Query UAAUGCAAGCAAAGAUCUUACAUGAGGAUCACCCAUGUGCUCGUCUUAUAAAGUACUAUCACGAAAGUGAUAGUACU [Mat - Sensor v3 - turn-off var 1 - Eli Mod - D92] (puzzle: Sensor v3, turn-off variant 1) next
Result: 25.2

Task: Another sequence to look at: CUAGAUCAUUGGAUCUAGUACAUGAGGAUCACCCAUGUGACGAGUUACAUGUUAUAUAAGCUUUUUGCUCGUCAUUU [AK 1] (puzzle: Sensor v3, turn-off variant 1)
Result: 86.3

Task: Here is the next sequence: ACAACAAGCUUUUUGUUCGUAGAACAUGAUGCUCUAGUCACAUGAGGAUCACCCAUGUCAGCCAGUUAGAUAGGUGA [JR_SV3TOV2_Sub064] (puzzle: Sensor v3, turn-off variant 2)
Result: 81.1

Task: Next record, please: AAGUACCGUCACGAUAGUGAUGGUACAACAGGCAGUGAAACAUGAGGAUCACCCAUGUCCUCAAUUGCUCGUCUUAU [Sensor 3 - 77] (puzzle: Sensor v3, turn-off variant 2)
Result: 98.7

Task: Can you check AUAUUAAUAUAGGAUAUCGAAUUUAUAAAUUAUCGAGAAGGAUAAACAUGAGGAUCACCCAUGUGGUAUCAUGG [Mat - Exclusion 6 - JL Mod - D42] (puzzle: Exclusion 6) next?
Result: 346

Task: Record: GGAAGACAUGAGGAUCACCCAUGUAAGGAUAUCGGAGGUAAGGGAGGAAGGAGAUAGGCGAGAAGGUACAGGUG [JR_Exclu1_Sub094] (puzzle: Exclusion 1)
Result: 53

Task: Further, for GUGAAACAUGAGGAUCACCCAUGUGAGGAUAUGAUUUAGUAAUGGAGACAGUACAUAUUCAGAAGGCACAAUGG [Mat - Mod of JL D76] (puzzle: Exclusion 1) ?
Result: 182

Task: Try this sequence next: AGCCCUGGCGUCAGGAUAUCGAAACCGCAAAAGGACGAGAAGGGACAUGAGGAUCACCCAUGUAGUGAGUUAAA [Isedrecedi] (puzzle: Brourd's mod of Exclusion 4)
Result: 39

Task: Next sequence up: AAGAAACAUGAGGAUCACCCAUGUGAGGAUAUGAGUAAGAAAAGAAAAGAAAGAAGAGUCAGAAGGCACAAAGG [salish99-ex1_r3_060] (puzzle: Exclusion 1)
Result: 41.5

Task: And for AAAAUGGUCUAGGAUAUGACAAAUCUGAUCACGUCAGAAGGAGACACAUGAGGAUCACCCAUGUGGGUGCGAAA [Qureenan] (puzzle: Exclusion 6) ?
Result: 39.5

Task: Please answer likewise for UUUUAGAGAGGAUAUAUAUUGUGAAACAUGAGGAUCACCCAUGUAAUAAUAUGGAUGUAAAUAGAAGGCUCAUUUA [JL-ex5-3.03] (puzzle: Exclusion 5)
Result: 42.7

Task: Now the sequence AGAUGGCGAGGAUAUACAUGAGGAUCACCCAUGUGAAGAGAUAAAGUGAGGAAGAAAAGUAGAAGGCGCUGUCA [Mat - Exclusion 3 - Mod of Salish D24] (puzzle: Exclusion 3)
Result: 40.9

Task: Also need GAUUAUGCGAGCUUUAGGGACAUGAGGAUCACCCAUGUUCGUCUUAUUGGUCUAAGUGCACUGACAUACCUAAAUCU [JMF 84] (puzzle: Sensor v3, turn-off variant 1) , thanks.
Result: 19.6

Task: Entry to check: GCCAGAGCAGGAUAUUCAAUAUCUCACAUGAGGAUCACCCAUGUCCAGCGAAAGCUGGAGGGAGAAGGGCUCUGGC [Fiskers Ex 5 - 9] (puzzle: Exclusion 5)
Result: 61.6

###

# Test system: MS2 coat protein
# assayNotes: apparent KD of MS2 coat protein; designed switch direction (-1 OFF switch, 1 ON switch): -1; higher = weaker reporter binding
# conditionInfo: input ligand: FMN 200 uM
assayReadout: apparent KD of MS2 coat protein (nM)
Kindly provide the numeric value in nM only, without the unit symbol.

>  <residueCodes>
CCAAGCUUGUUCAUUAACCACAUGAGGAUCACCCAUGUCUUGGCAAUUAUGACCUGCCCGUCAGGUGCUCGUCUUAU [Sensor-V1 #36] (Eterna round: R97, puzzle: Sensor, turn-off variant 1)

>  <assayReadout>
apparent KD of MS2 coat protein

>  <uom>
nM

>  <assayValue>
45

$$$$
>  <residueCodes>
GUGUGCACGCUGCGAUCCUACAUGAGGAUCACCCAUGUGGUCUGGUGGCGUGGGUCACCGGACUUGGCUCGUCUUGA [salish99_S_TOV1_R5_069] (Eterna round: R97, puzzle: Sensor, turn-off variant 1)

>  <assayReadout>
apparent KD of MS2 coat protein

>  <uom>
nM

>  <assayValue>
121

$$$$
>  <residueCodes>
GAGGUGUAAGGAUAUAGCUAUAGGCUAACCGGGACCCAUAGCUAGAAGGUACAUGAGGAUCACCCAUGUUUGCU [Eternabot (L1) Solution 99] (Eterna round: R97, puzzle: Exclusion 4)

>  <assayReadout>
apparent KD of MS2 coat protein

>  <uom>
nM

>  <assayValue>
34.9

$$$$
>  <residueCodes>
CCACGGUGAGGAUAUCAAAGAUUGCGCUCGGAAGGUCAAUUUGAGAAGGCACAUGAGGAUCACCCAUGUUAGCG [Eternabot (L2) Solution 40] (Eterna round: R97, puzzle: Exclusion 4)

>  <assayReadout>
apparent KD of MS2 coat protein

>  <uom>
nM

>  <assayValue>
29.8

$$$$

// switching to the query sequence
Task: Can you look up the measured apparent KD of MS2 coat protein of GGCAGACAUGAGGAUCACCCAUGUCAGGAUAUGCGGCGAAGUACAGUUAGUGCAUUUGGUAGAAGGGACAAGGA [Eternabot (L1) Solution 100] (Eterna round: R97, puzzle: Exclusion 1) for me?
Result: 29.8
